Tested on: K4 kissing-loop RNA reporter;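 note: bound reporter read as fluorescence of individual clusters on recovered sequencing chips by microscopy, with normalized cluster intensities fitted with a binding model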
assay.procedure: apparent KD of K4 kissing-loop reporter; higher = weaker reporter binding
conditions: Eterna round: R107; input ligand: none
Please enter yes (1) where apparent KD of K4 kissing-loop reporter is greater than or equal to 300 nM, and no (0) where it is lower.

INSERT INTO measurements (residue_codes, group_label) VALUES
  ('AGCAAUAUCACGGCCGCCACUGAAUAUUGUUUUUAUAGUUAUAAAUCUUGCCAGUGAUGUUGGUUCAGGACCGGGUGAGUUAAUA [JR_SSTryptoB_Sub003]', 'yes (1)'),
  ('UGUCAUUGGUCGGCCGCCACUCCAUAACGAGUGAUGUUCUAAAAGACGGAUCGAAAGAUCUGUCGGAGGACCGGGACCGAUGACU [FiskerMod 6 - Jieux - Same State - Tryptophan B]', 'yes (1)'),
  ('UUUGUAUAGGGAAGGAGCGUGAAUGAUAAAGAAUAUAGUGAUGUUAUAUAGAAGAAAGAAUCACAGGUAGGUCGCCCGGAGGAGG [SSArgB.H]', 'yes (1)'),
  ('GCGCGGGUCAGUGAUGUUGACCCUCGGAGACGAGGACCGGUACGGCCGCCACUCGUCCGCGCAGCUGAGGCAAAAGCCUCGGCAA [Omei KL Tryp A SS B v5]', 'no (0)'),
  ('UAAUUUAUGUCUUUAAUUUUAUAAUCAGAUACCAGUGAUUUAUGACACCCUUGGCAGCUGUAUUGAGUGAUGUUCUUAUACUUAA [JR_Nu_ExcTheophyA_Sub022]', 'no (0)'),
  ('UGGGUUGGAAGUGAUGUUUCUCUAAGUGAUACCAGACAAAAGAAAGUCCCUUGGCAGCACAAUGAUGCCAAGGAAACGGCAUGAU [#16 K4 Theophylline A Same State]', 'no (0)');

###

System: MS2 coat protein
assay.procedure: apparent KD of MS2 coat protein; designed switch direction (-1 OFF switch, 1 ON switch): -1; higher = weaker reporter binding
conditions: input ligand: microRNA oligo, concentration not stated
Please enter YES where apparent KD of MS2 coat protein is greater than or equal to 30 nM, and NO where it is lower.

INSERT INTO measurements (residue_codes, test_target, group_label) VALUES
  ('ACAUGAGGAUCACCCAUGUGAAAAGAAUGGCUGACACAGAGAUAGGAUAUGUGUGCAUAUCUAACACAGAAGGGUCAUGACUGG [Deportation 80 - Jieux - Exclusion NG 3] (Eterna round: R96, puzzle: Exclusion NG 3)', 'MS2 coat protein', 'YES'),
  ('GCGCCAUCGUGAGAUGGCGUAAUUACAUGAGGAUCACCCAUGUAGGAUAUCGAUUGCUUUGCAGUCGAGAAGGGCGUGAUAAUU [JL ENG3 3.70] (Eterna round: R96, puzzle: Exclusion NG 3)', 'MS2 coat protein', 'YES'),
  ('GCGGCGUAUGUAGGAUAUCGGUCAGUUUCUGAUCGAGAAGGACAUGAGGAUCACCCAUGUAAAUUACCGACUUUGUCGGGCCGC [JL ENG1 3.66] (Eterna round: R96, puzzle: Exclusion NG 1)', 'MS2 coat protein', 'NO'),
  ('CACCGUUACACAGGAUAUCUUACAUGAGGAUCACCCAUGUAAUAAAUGAGAAUUUCGAAUGUAAAAGAGAAGGGUGGAAUCGGC [Ostracism 66 - Jieux - Exclusion NG 2] (Eterna round: R96, puzzle: Exclusion NG 2)', 'MS2 coat protein', 'NO'),
  ('UAUAUAUAGUAAGGAUAUGUAAUUUUUUUAUAAACAGAAGGUACUGACAUGAGGAUCACCCAUGUUUUAGUGUGGGCAUGUAGA [JMF''s solution 32] (Eterna round: R96, puzzle: Exclusion NG 1)', 'MS2 coat protein', 'YES'),
  ('ACAUGAGGAUCACCCAUGUGCACGUAAUGGCUCAUGUAGAGUGAGGAUAUGCGUGGCGAACGAGCGCAGAAGGCACAAGACUGG [Deportation 17 - Jieux - Exclusion NG 3] (Eterna round: R96, puzzle: Exclusion NG 3)', 'MS2 coat protein', 'YES'),
  ('UUAUUAUAUGUAGGAUAUGCAUAUUGUUGUUAUGCAGAAGGACAUGAGGAUCACCCAUGUAUAUUAUUGUUAUAUAUUAUAUAU [Title] (Eterna round: R96, puzzle: Exclusion NG 1)', 'MS2 coat protein', 'NO'),
  ('AAAAGGCAGGGAGGAUAUGCUUGCCUGGGUCGUCUUCAAACAUGAGGAUCACCCAUGUAGUCGACGCAGAAGGCCCUCAAAGCC [Mat - Exclusion NG 2 - Mod of JL - D61] (Eterna round: R96, puzzle: Exclusion NG 2)', 'MS2 coat protein', 'NO'),
  ('UUGUUGUAUGUAGGAUAUGCGUAUUAUUAUUGGGCAGAAGGACAUGAGGAUCACCCAUGUAUGUUGUUGUUAUAUAUUAUAUAU [Title] (Eterna round: R96, puzzle: Exclusion NG 1)', 'MS2 coat protein', 'YES'),
  ('CUUGUUUAUGUAGGAUAUGCCUGGCGUGCCUUUGCAGAAGGACAUGAGGAUCACCCAUGUACAUGAGGAUCACCCAUGUUCGCA [salish99_ExNG1_r04_102] (Eterna round: R96, puzzle: Exclusion NG 1)', 'MS2 coat protein', 'YES'),
  ('GUCGUGCAGCUUUGCUGUACGAGUACAUGAGGAUCACCCAUGUAGGAUAUGGUACGCUUUGCGUGCUAGAAGGAUAUGUGUAGC [salish99_ExNG3_r04_503] (Eterna round: R96, puzzle: Exclusion NG 3)', 'MS2 coat protein', 'NO'),
  ('ACCUCUACGCUUUCCAAGGGUAGACCUGGUGUUUGUCACACAUGAGGAUCACCCAUGUGCACUGUGCGAGUCGAACA [solution 38] (Eterna round: R96, puzzle: Sensor v2, turn-off variant 2)', 'MS2 coat protein', 'YES'),
  ('AAUUAACAUGUAGGAUAUCUGCACGUGUAGUGCAGAGAAGGACAUGAGGAUCACCCAUGUAUAGCGACUUCGGUCGCAAUAAUU [ENG1/2-B3] (Eterna round: R96, puzzle: Exclusion NG 1)', 'MS2 coat protein', 'YES'),
  ('CUCGUGCGGCUUUGCUGUGCGGGUACAUGAGGAUCACCCAUGUAGGAUAUGGUGCGCUUUGCGUGCCAGAAGGGCGUGCGUUGG [salish99_ExNG3_r04_011] (Eterna round: R96, puzzle: Exclusion NG 3)', 'MS2 coat protein', 'NO'),
  ('AGGAGCCCACGGGCUCCAAAACAUGAGGAUCACCCAUGUCAGUAGGAUAUCAUGCUUUUCUGCUGUGAGAAGGGCUGAUGUGGC [Esededor] (Eterna round: R96, puzzle: Exclusion NG 3)', 'MS2 coat protein', 'YES'),
  ('GCGCAAACGCCAAAAGGCGAAACAACAUGAGGAUCACCCAUGUAGGAUAUCGAUUGCUUUGCAGUCGAGAAGGACAUGAUGCGC [JL ENG3 3.80 Mod 2] (Eterna round: R96, puzzle: Exclusion NG 3)', 'MS2 coat protein', 'NO'),
  ('ACAUGUCAUCGAGGAUAUUGGACACAUGAGGAUCACCCAUGUACUCGGAGGCUCUACUAUGAGUUCGAGAAGGCGAUGUACAUG [Ex NG2 #75] (Eterna round: R96, puzzle: Exclusion NG 2)', 'MS2 coat protein', 'YES');

###

Test system: MS2 coat protein
assay.procedure: apparent KD of MS2 coat protein; higher = weaker reporter binding
conditions: Eterna round: R107; input ligand: tryptophan 2.4 mM
Please enter criterion met where apparent KD of MS2 coat protein is greater than or equal to 50 nM, and criterion not met where it is lower.

INSERT INTO results (residue_codes, test_target, group_label) VALUES
  ('UAUCCACAUGAGGAUCACCCAUGUUAGGAAGGAGCGGUGAAUGAACCAGGUAGGUCGCCUAGCUGAGGACCAUCGAUGGAUUCGU [Exclusion - Arginine A (Freestyle 15)]', 'MS2 coat protein', 'criterion not met'),
  ('AGUGACUACAUCUGGAAUUAAGGUAGGGAAGGAGCGCGGUAAGACGCAGGUAGGUCGCCCUACAUGAGGAUCACCCAUGUGAUGU [XARG-A 28]', 'MS2 coat protein', 'criterion met'),
  ('UUAAUCAUUGAUGAAAACAUUAAUGCAGAAGGAGCGUGAUAAAACACAGGUAGGUCGCUGAAGGGAACAUGAGGAUCACCCAUGU [AstrosSSArgA#16]', 'MS2 coat protein', 'criterion not met'),
  ('CUCGGAACAAUCGAUACCAGUUCUCAUGGAUUGCAGCAGUACAUGAGGAUCACCCAUGUAAACCCUUGGCAGCGAAGAACAAGAC [theeternabot_exclusion_MS2_Theo_B_18]', 'MS2 coat protein', 'criterion not met'),
  ('AAUAACAUGAGGAUCACCCAUGUAAAAGAUACCAGAGUGAUGAUCCUCCCUUGGCAGCUUAAACGCUAUUGGAAACAAUAGCGAA [Mat - Same State Theophlline A - Mod of Eli - D3]', 'MS2 coat protein', 'criterion met'),
  ('AAAUGAAGGCGAAGGAGCGCGAACAUGAGGAUCACCCAUGUGUAUGUAUGUAGUCAUGUAUCGCAGGUAGGUCGCGCUGUUACAU [Exclusion Arginine B]', 'MS2 coat protein', 'criterion met'),
  ('CGAUACGUAACUGAUACCAGUGUACUGACAUGAGGAUCACCCAUGUUGGGUUUUGUUGUACACCCUUGGCAGCAGAAUCGUAUCG [AstrosExyTheB#18]', 'MS2 coat protein', 'criterion met'),
  ('UAAUUCACUAUUCACGGUCCGAUGUUCGAUACCAGAUCAUUUCGAAUCCCUUGGCAGCGAUUAACAUGAGGAUCACCCAUGUAAC [theeternabot_exclusion_MS2_Theo_A_35]', 'MS2 coat protein', 'criterion not met'),
  ('AUUACAUGGAUUACAACUAAAUCAACUGAAGGAGCGUGAAGGAUCACAGGUAGGUCGCAGUACAUGAGGAUCACCCAUGUUAUAA [JR_Nu_SSArginiA_Sub021]', 'MS2 coat protein', 'criterion not met'),
  ('CCGGGCCCGGGAGACCGGGCCCGGACUGAAGGAGCGGGAAUAAACCCAGGUAGGUCGCAGAGAUCCACAUGAGGAUCACCCAUGU [!0.U]', 'MS2 coat protein', 'criterion not met'),
  ('ACCGCAUCCGUAUAGGAUGCGGCCCAUGAAGGAGCGUGGGAAACCACAGGUAGGUCGCAUGGAAAACAUGAGGAUCACCCAUGUG [Alien]', 'MS2 coat protein', 'criterion met'),
  ('UUUACAUGAGGAUCACCCAUGUUCCAUGAUACCAGACAUGAAAAUGUCCCUUGGCAGCAUGAAUGAUUCAUAGGAUAAUUAUGGG [Medlanky]', 'MS2 coat protein', 'criterion met'),
  ('GGACUAACCAGAAGGAGCGACACGCAGAAACUGCAAAUUCCUCCACACGAGGAUCACCCGUGUCAGGUAGGUCGCUGGUUAGUCG', 'MS2 coat protein', 'criterion not met'),
  ('UGGCAGUACAUGGGUUACUGCCAAGGUGAUACCAGCAUCGAAAGAUGCCCUUGGCAGCACCAACAUGAGGAUCACCCAUGUAAUA [(MT)''''-(M)''-(T'')-(Theo)-(Ms2)_Design1/22_8]', 'MS2 coat protein', 'criterion met'),
  ('AUGCCUAGUGGAAGGAGCGAGGGUCUUCUCAACAUGAGGAUCACCCAUGUUCUUUUAUACCCUCAGGUAGGUCGCCAUUGGGACA [Anenre]', 'MS2 coat protein', 'criterion not met'),
  ('AUCCACAGCCGAAGGAGCGCAGUAGGAUGACAUGAGGAUCACCCAUGUGUGUGAUGUGGAUUGCAGGUAGGUCGCGGAGUGGAUU [Exclusion - Arginine B (Freestyle 9)]', 'MS2 coat protein', 'criterion not met'),
  ('UCGCUCUGGGUGAAUCCCAGAGAUAUGGAAGGAGCGGACGAAAGUCCAGGUAGGUCGCCAUCGAACAUGAGGAUCACCCAUGUAC [Same State - Arginine A (Freestyle 27)]', 'MS2 coat protein', 'criterion met'),
  ('UUAAUCUUAGAAGAAAACUUUUAAGCAGAAGGAGCGUGAUAAAACACAGGUAGGUCGCUGAAGGGAACAUGAGGAUCACCCAUGU [AstrosSSArgA#18]', 'MS2 coat protein', 'criterion not met'),
  ('ACAUGAGGAUCACCCAUGUAAUAAUCAGAAGGAGCGUGGAAUAACACAGGUAGGUCGCUGAUGUUUGGUUAAAAUUAUUCGUGAA [JR_ExcArginiA_Sub001]', 'MS2 coat protein', 'criterion not met'),
  ('AUUAUCGUAGGUUAAAGUUUAGAAACUGAAGGAGCGUGGUAUUACACAGGUAGGUCGCAGAUUUUACAUGAGGAUCACCCAUGUU [JR_ExcArginiA_Sub010]', 'MS2 coat protein', 'criterion not met'),
  ('GCGCUCGACAGAAGGAGCGGCGACGUCGGUGUCAGGAGGCACAUGAGGAUCACCCAUGUCAGCCAGGUAGGUCGCUGUCGAUCGC [Arquce]', 'MS2 coat protein', 'criterion not met'),
  ('GAAUUUAUAUGAAGGAGCGUCGAAAAUGGGUAAACAUGAGGAUCACCCAUGUAAAGGGAACGACAGGUAGGUCGCAUAUGGAUUC [AstromonsSSArgB#26]', 'MS2 coat protein', 'criterion met');

Where these numbers come from: the supplement of paper PMC9170038
